- assayedSystem: HIV-1 YU-2 gp120 (HIV-1 (YU-2), UniProt P35961)
- assayInfo: SPR
Exam item: assign Y to entries whose kon is below 50000 M⁻¹ s⁻¹ and N to entries at or above 50000 M⁻¹ s⁻¹. Note that a value of exactly 50000 M⁻¹ s⁻¹ receives N.

Field: example entries. Status: answers known.
[[record]]
binder = "Fab m18 P95A (LCDR3) (Fab, V domains shown) VH: VQLLESGPGVVKPSETLSLTCTVSGASVNNYYWTWVRQPPGKGLEWIGNVYDSGDTNYNPSLSSRLSLSMDTSKNQFSLRLSSVTAADTATYYCARYHRHFIRGPLSFDYWGRGTLVTVSS VL: LQMTQSPSFLSASVGDRVSITCRASQDIQKFLAWYQLTPGDAPKLLMYSASTLQSGVPSRFSGSGSGTEFTLTISGLQPEDFATYYCQHLKRYAYTFGQGTKLEIS"
classassignment = "N"

[[record]]
binder = "Fab m18 S64A (HCDR2) (Fab, V domains shown) VH: VQLLESGPGVVKPSETLSLTCTVSGASVNNYYWTWVRQPPGKGLEWIGNVYDSGDTNYNPSLASRLSLSMDTSKNQFSLRLSSVTAADTATYYCARYHRHFIRGPLSFDYWGRGTLVTVSS VL: LQMTQSPSFLSASVGDRVSITCRASQDIQKFLAWYQLTPGDAPKLLMYSASTLQSGVPSRFSGSGSGTEFTLTISGLQPEDFATYYCQHLKRYPYTFGQGTKLEIS"
classassignment = "Y"

[[record]]
binder = "Fab m18 D53A (HCDR2) (Fab, V domains shown) VH: VQLLESGPGVVKPSETLSLTCTVSGASVNNYYWTWVRQPPGKGLEWIGNVYASGDTNYNPSLSSRLSLSMDTSKNQFSLRLSSVTAADTATYYCARYHRHFIRGPLSFDYWGRGTLVTVSS VL: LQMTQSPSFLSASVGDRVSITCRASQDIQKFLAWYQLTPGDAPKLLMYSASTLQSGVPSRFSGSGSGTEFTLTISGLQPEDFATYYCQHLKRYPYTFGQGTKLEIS"
classassignment = "Y"

[[record]]
binder = "Fab m18 S65A (HCDR2) (Fab, V domains shown) VH: VQLLESGPGVVKPSETLSLTCTVSGASVNNYYWTWVRQPPGKGLEWIGNVYDSGDTNYNPSLSARLSLSMDTSKNQFSLRLSSVTAADTATYYCARYHRHFIRGPLSFDYWGRGTLVTVSS VL: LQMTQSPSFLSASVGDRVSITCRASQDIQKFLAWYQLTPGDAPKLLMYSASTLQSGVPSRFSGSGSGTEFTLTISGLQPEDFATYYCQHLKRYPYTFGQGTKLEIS"
classassignment = "Y"

[[record]]
binder = "Fab m18 Y33A (HCDR1) (Fab, V domains shown) VH: VQLLESGPGVVKPSETLSLTCTVSGASVNNYAWTWVRQPPGKGLEWIGNVYDSGDTNYNPSLSSRLSLSMDTSKNQFSLRLSSVTAADTATYYCARYHRHFIRGPLSFDYWGRGTLVTVSS VL: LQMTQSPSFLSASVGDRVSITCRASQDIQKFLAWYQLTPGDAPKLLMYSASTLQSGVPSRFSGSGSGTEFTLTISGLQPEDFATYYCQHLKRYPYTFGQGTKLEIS"
classassignment = "N"

[[record]]
binder = "Fab m18 (wild type) (Fab, V domains shown) VH: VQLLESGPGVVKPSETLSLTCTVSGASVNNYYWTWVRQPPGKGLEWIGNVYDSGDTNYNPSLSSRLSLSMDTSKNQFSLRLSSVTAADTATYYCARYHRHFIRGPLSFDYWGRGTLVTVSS VL: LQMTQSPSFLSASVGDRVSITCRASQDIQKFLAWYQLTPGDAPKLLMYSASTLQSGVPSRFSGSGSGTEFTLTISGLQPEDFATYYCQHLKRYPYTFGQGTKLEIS"
classassignment = "N"

[[record]]
binder = "Fab m18 Y32A (HCDR1) (Fab, V domains shown) VH: VQLLESGPGVVKPSETLSLTCTVSGASVNNAYWTWVRQPPGKGLEWIGNVYDSGDTNYNPSLSSRLSLSMDTSKNQFSLRLSSVTAADTATYYCARYHRHFIRGPLSFDYWGRGTLVTVSS VL: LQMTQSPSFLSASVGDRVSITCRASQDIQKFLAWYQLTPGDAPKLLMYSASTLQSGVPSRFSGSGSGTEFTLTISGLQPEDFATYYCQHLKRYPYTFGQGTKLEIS"
classassignment = "N"

[[record]]
binder = "Fab m18 F99Y (HCDR3) (Fab, V domains shown) VH: VQLLESGPGVVKPSETLSLTCTVSGASVNNYYWTWVRQPPGKGLEWIGNVYDSGDTNYNPSLSSRLSLSMDTSKNQFSLRLSSVTAADTATYYCARYHRHYIRGPLSFDYWGRGTLVTVSS VL: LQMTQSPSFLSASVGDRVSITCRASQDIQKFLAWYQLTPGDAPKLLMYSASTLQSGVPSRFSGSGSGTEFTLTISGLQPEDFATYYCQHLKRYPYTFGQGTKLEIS"
classassignment = "N"


Now look at this entry.
Q: Lab log: compare recorded kon with 50000 M⁻¹ s⁻¹; is it strictly lower for Fab m18 H96A (HCDR3) (Fab, V domains shown) VH: VQLLESGPGVVKPSETLSLTCTVSGASVNNYYWTWVRQPPGKGLEWIGNVYDSGDTNYNPSLSSRLSLSMDTSKNQFSLRLSSVTAADTATYYCARYARHFIRGPLSFDYWGRGTLVTVSS VL: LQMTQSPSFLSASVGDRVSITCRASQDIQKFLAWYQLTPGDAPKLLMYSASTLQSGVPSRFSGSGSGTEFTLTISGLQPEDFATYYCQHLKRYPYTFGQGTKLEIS ?
Result: N
